Tested on: C. crescentus (strain CB15N)
Assay: Minimum inhibitory concentration (macrodilution), C. crescentus CB15N
Type: cell-based
Experimental setup: Caulobacter vibrioides; C. crescentus CB15N strain, determined as in Example 3
Can you tell me MIC for the items I'm about to list?
Reply numerically in µM, unit not repeated.

Fill in: C. crescentus (strain CB15N) MIC for `Cc1nc2ccccc2n1CCC(=O)N/N=C/c1ccccc1O` = 15

The observed MIC for `O=C(CCn1c(C(F)(F)F)nc2ccccc21)N/N=C/c1c(O)ccc2ccccc12` when tested with C. crescentus (strain CB15N) stands at 7.5

Form field, MIC with C. crescentus (strain CB15N), item `Cc1nc2ccccc2n1CCC(=O)N/N=C/c1c(O)ccc2ccccc12` : 5

Data origin: patent US9282738B2
